assay: Oral bioavailability in rat (dose 1 mg/kg i.v. and 2 mg/kg p.o.)
Assay type: ADME, organism-based
test-context: in vivo
readout: bioavailability

> print(dat)
                                   compound  test.value
1  NC(CC(=O)N1CCC[C@H]1C(=O)NCc1ccc(C(=O)O)cc1)Cc1ccc(F)c(F)c1.O=C(O)C(F)(F)F (stereo partly drawn)        < 1%
2  NC(CC(=O)N1CCC[C@H]1C(=O)NCCCCc1nn[nH]n1)Cc1ccccc1F.O=C(O)C(F)(F)F (stereo partly drawn)        < 1%

Now let's try a different one.
Data request: What value of bioavailability has been reported for the following compound? CC(C)[C@@H](Oc1ccc(CNC(=O)[C@@H]2CCCN2C(=O)CC(N)Cc2c(F)c(F)c(F)c(F)c2F)cc1)C(=O)O.O=C(O)C(F)(F)F (stereo partly drawn)
Data returned: < 1%

###

pIC50: −log10 of the molar value.
A set of compounds tested on Prolyl endopeptidase FAP (Homo sapiens, UniProt Q12884), with measured pIC50:

Reference set, count: 2
> print(dat)
                                   compound  readout  test.value
1  COC(=O)Cc1ccc(CNC(=O)[C@@H]2CSCN2C(=O)CC(N)Cc2ccccc2F)cc1.O=C(O)C(F)(F)F (stereo partly drawn)    pIC50      < 4.00
2  NC(CC(=O)N1CSC[C@H]1C(=O)NCc1ccc(CC(=O)O)cc1)Cc1ccccc1F.O=C(O)C(F)(F)F (stereo partly drawn)    pIC50      < 4.00

Now let's try a different one.
Data request: Entry NC(CC(=O)N1CCC[C@H]1C(=O)NCCCCc1nn[nH]n1)Cc1ccccc1F.O=C(O)C(F)(F)F (stereo partly drawn) , system Prolyl endopeptidase FAP (Homo sapiens, UniProt Q12884): what pIC50 was measured?
Data returned: < 4.00
